system_under_test: Recombinant human farnesyl transferase (FTase) (Homo sapiens)
assay_overview: FTase fluorescence assay (farnesylation of dansyl-GCVLS peptide)
condition_set: recombinant human FTase 2.5 nM, Dansyl-GCVLS 85 nM, FPP 30 nM, 30° C., 50 minutes
assay_readout: IC50

Previously resolved entries follow.
1) Cn1cnnc1[C@@]1(N)c2ccc(Cl)c(c2)OCCc2cccc(c2)-c2cc(=O)n(C3CC3)c3ccc1cc23 [(S)-35] ... ≤ 10 nM
2) Cn1cncc1C1(O)c2ccc(C#N)c(c2)OCc2cccc(c2)-c2cc(=O)[nH]c3ccc1cc23 (stereo not shown) ... ≤ 10 nM
3) Cn1cncc1C1(O)c2ccc(C#N)c(c2)COc2cccc(c2)-c2cc(=O)[nH]c3ccc1cc23 (stereo not shown) ... ≤ 10 nM

// query Identify measured IC50 associated with [2H]C([2H])([2H])n1c(=O)cc2c3cc(ccc31)[C@@](O)(c1cncn1C)c1ccc(Cl)c(c1)OCCc1cccc-2c1 [(S)-28]
// result ≤ 10 nM

// query Identify measured IC50 associated with Cn1cncc1[C@]1(N)c2ccc(Cl)c(c2)COc2cccc(c2)-c2cc(=O)n(C)c3ccc1cc23 (racemic) [(R)-46]
// result > 100 nM

// query Identify measured IC50 associated with Cn1cncc1[C@@]1(O)c2ccc(Cl)c(c2)CCc2cccc(c2)-c2cc(=O)n(C)c3ccc1cc23 [(S)-3]
// result ≤ 10 nM

// query Identify measured IC50 associated with Cn1cncc1[C@]1(N)c2ccc(C#N)c(c2)OCc2cccc(c2)-c2cc(=O)n(C)c3ccc1cc23 (racemic) [(R)-19]
// result > 100 nM

---

Entries and their IC50
system_under_test: Recombinant human farnesyl transferase (FTase) (Homo sapiens)
assay_overview: FTase fluorescence assay (farnesylation of dansyl-GCVLS peptide)
condition_set: recombinant human FTase 2.5 nM, Dansyl-GCVLS 85 nM, FPP 30 nM, 30° C., 50 minutes

1) Cc1cn([C@H]2c3ccc(C#N)c(c3)COc3cccc(c3)-c3cc(C#N)nc4ccc2cc34)cn1 [(R)-90] ... 10 to 100 nM
2) Cn1cncc1C1(O)c2ccc(Br)c(c2)COc2cccc(c2)-c2cc(Cl)nc3ccc1cc23 (stereo not shown) ... > 100 nM
3) Cn1cncc1C1(N)c2ccc(Br)c(c2)COc2cccc(c2)-c2cc(OC3COC3)nc3ccc1cc23 (stereo not shown) ... > 100 nM

Switching to the query record.
// query Identify measured IC50 associated with Cn1cncc1C1(O)c2cccc(c2)COc2cccc(c2)-c2cc(=O)[nH]c3ccc1cc23 (stereo not shown)
// result 10 to 100 nM

---

system_under_test: Recombinant human farnesyl transferase (FTase) (Homo sapiens)
assay_overview: FTase fluorescence assay (farnesylation of dansyl-GCVLS peptide)
condition_set: recombinant human FTase 2.5 nM, Dansyl-GCVLS 85 nM, FPP 30 nM, 30° C., 50 minutes
Entries and their IC50

1. Cn1cncc1C1(N)c2ccc(C#N)c(c2)COc2cccc(c2)-c2cc(NC3COC3)nc3ccc1cc23 (stereo not shown) ... 10 to 100 nM
2. Cn1cnnc1C1(O)c2ccc(Cl)c(c2)OCCc2cccc(c2)-c2cc(=O)[nH]c3ccc1cc23 (stereo not shown) ... 10 to 100 nM
3. Cn1cncc1C1(O)c2ccc(C#N)c(c2)COc2cccc(c2)-c2cc(C#N)nc3ccc1cc23 (stereo not shown) ... ≤ 10 nM
4. Cn1cncc1C1(O)c2ccc(Cl)c(c2)CCOc2cccc(c2)-c2cc(=O)n(C)c3ccc1cc23 (stereo not shown) ... ≤ 10 nM
5. Cn1cncc1[C@@]1(N)c2ccc(Cl)c(c2)OCc2cccc(c2)-c2cc(=O)n(C)c3ccc1cc23 [(S)-15] ... ≤ 10 nM

// query Check Recombinant human farnesyl transferase (FTase) (Homo sapiens) data and give IC50 for Cn1cncc1[C@@]1(O)c2ccc(C#N)c(c2)CCc2cccc(c2)-c2cc(=O)n(C)c3ccc1cc23 [(R)-6] .
// result ≤ 10 nM

// query Check Recombinant human farnesyl transferase (FTase) (Homo sapiens) data and give IC50 for Cn1cncc1[C@]1(N)c2ccc(C#N)c(c2)COc2cccc(c2)-c2cc(OC3COC3)nc3ccc1cc23 [(R)-89] .
// result 10 to 100 nM

// query Check Recombinant human farnesyl transferase (FTase) (Homo sapiens) data and give IC50 for Cn1cncc1C1(N)c2ccc(C#N)c(c2)COc2cccc(c2)-c2cc(N3CCNCC3)nc3ccc1cc23 (stereo not shown) .
// result 10 to 100 nM

// query Check Recombinant human farnesyl transferase (FTase) (Homo sapiens) data and give IC50 for COc1cc2c3cc(ccc3n1)C(O)(c1cncn1C)c1ccc(C#N)c(c1)CCc1cccc-2c1 (stereo not shown) .
// result ≤ 10 nM

---

assay_overview: Metabolic stability in mouse liver microsomes
Type: in vitro ADME
condition_set: CD-1 mouse liver microsomes 0.5 mg protein/mL, test compound 1 μM, 37° C.; read-out: T1/2 in MLM
Protocol: The metabolic stability of the compounds disclosed herein was determined by measuring half-life (T1/2) of the compounds in the presence of mouse liver microsomes (MLM) or human liver microsomes (BILM). Intermediate solution: 5 μL of compound and control stock solution (10 mM in dimethyl sulfoxide (DMSO)) were diluted with 495 μL of acetonitrile (ACN) (intermediate solution concentration: 100 μM, 99% ACN). […]
Entries and their half-life at 1 μM

1) Cn1cncc1[C@@](N)(c1ccc(Cl)cc1)c1ccc2c(c1)c(-c1cccc(Cl)c1)cc(=O)n2C [Tipifarnib, tipifarnib, reference compound] ... < 5 min
2) Cn1cncc1[C@@]1(N)c2ccc(Cl)c(c2)CCc2cccc(c2)-c2cc(=O)n(C)c3ccc1cc23 [(S)-4] ... < 5 min

// query Identify measured half-life at 1 μM associated with Cn1cncc1[C@@]1(N)c2ccc(C#N)c(c2)CCc2cccc(c2)-c2cc(=O)n(C)c3ccc1cc23 [(R)-7]
// result 5 to 15 min

// query Identify measured half-life at 1 μM associated with Cn1cncc1[C@@]1(N)c2ccc(Cl)c(c2)OCCc2cccc(c2)-c2cc(=O)n(C3CC3)c3ccc1cc23 [(S)-30]
// result < 5 min

// query Identify measured half-life at 1 μM associated with Cn1cncc1[C@@]1(O)c2ccc(C#N)c(c2)OCc2cccc(c2)-c2cc(=O)n(C)c3ccc1cc23 [(S)-18]
// result 5 to 15 min

// query Identify measured half-life at 1 μM associated with Cn1cncc1[C@@]1(N)c2ccc(Cl)c(c2)COc2cccc(c2)-c2cc(=O)n(C)c3ccc1cc23 [(S)-46]
// result 5 to 15 min

// query Identify measured half-life at 1 μM associated with Cn1cncc1C1(O)c2ccc(Cl)c(c2)CCOc2cccc(c2)-c2cc(=O)n(C)c3ccc1cc23 (centres unmarked) [Compound 65]
// result 5 to 15 min

// query Identify measured half-life at 1 μM associated with Cn1cncc1[C@@]1(O)c2ccc(Cl)c(c2)OCc2cccc(c2)-c2cc(=O)n(C)c3ccc1cc23 [(S)-14]
// result < 5 min

---

system_under_test: Recombinant human farnesyl transferase (FTase) (Homo sapiens)
assay_overview: FTase fluorescence assay (farnesylation of dansyl-GCVLS peptide)
condition_set: recombinant human FTase 2.5 nM, Dansyl-GCVLS 85 nM, FPP 30 nM, 30° C., 50 minutes
assay_readout: IC50

// query Identify measured IC50 associated with Cc1cn([C@@H]2c3ccc(C#N)c(c3)COc3cccc(c3)-c3cc(C#N)nc4ccc2cc34)cn1 [(S)-90]
// result 10 to 100 nM

// query Identify measured IC50 associated with CNC1(c2nncn2C)c2ccc(Cl)c(c2)COc2cccc(c2)-c2cc(=O)n(C)c3ccc1cc23 (stereo not shown)
// result ≤ 10 nM

---

system_under_test: Recombinant human farnesyl transferase (FTase) (Homo sapiens, UniProt P49356)
Construct: purchased Crelux (Martinsried, Germany)
assay_overview: FTase fluorescence assay (farnesylation of dansyl-GCVLS peptide)
Type: biochemical
condition_set: recombinant human FTase 2.5 nM, Dansyl-GCVLS 85 nM, FPP 30 nM, 30° C., 50 minutes
pIC50: −log10 of the molar value.
Entries and their pIC50

Previously resolved entries follow.
1) [2H]C([2H])([2H])n1c(=O)cc2c3cc(ccc31)[C@@](O)(c1cncn1C)c1ccc(C#N)c(c1)COc1cccc-2c1 [(S)-55] ... ≥ 8.00
2) [2H]C([2H])([2H])n1c(=O)cc2c3cc(ccc31)[C@](N)(c1cncn1C)c1ccc(Cl)c(c1)COc1cccc-2c1 (racemic) [(R)-47] ... < 7.00
3) Cn1cncc1[C@]1(N)c2ccc(C#N)c(c2)OCCc2cccc(c2)-c2cc(=O)n(C)c3ccc1cc23 (racemic) [(R)-37] ... < 7.00
4) [2H]C([2H])([2H])n1c(=O)cc2c3cc(ccc31)[C@](N)(c1cncn1C)c1ccc(C#N)c(c1)OCc1cccc-2c1 (racemic) [(R)-20] ... < 7.00
5) Cn1cncc1[C@@]1(N)c2ccc(C#N)c(c2)COc2cccc(c2)-c2nccc3ccc1cc23 [(S)-86] ... ≥ 8.00
6) [2H]C([2H])([2H])n1c(=O)cc2c3cc(ccc31)[C@H](n1ncnc1C)c1ccc(Cl)c(c1)COc1cccc-2c1 [(S)-079] ... < 7.00
7) COc1cc2c3cc(ccc3n1)C(O)(c1cncn1C)c1ccc(Cl)c(c1)OCCc1cccc-2c1 (stereo not shown) ... < 7.00
8) Cn1cncc1[C@]1(N)c2ccc(C#N)c(c2)CCc2cccc(c2)-c2cc(C#N)nc3ccc1cc23 (racemic) [(S)-9] ... < 7.00

// query Identify measured pIC50 associated with [2H]C([2H])([2H])n1c(=O)cc2c3cc(ccc31)[C@H](n1cncc1C)c1ccc(Cl)c(c1)COc1cccc-2c1 [(S)-76]
// result 7.00 to 8.00

// query Identify measured pIC50 associated with [2H]C([2H])([2H])n1c(=O)cc2c3cc(ccc31)[C@@](N)(c1cncn1C)c1ccc(Cl)c(c1)COc1cccc-2c1 [(S)-47]
// result ≥ 8.00

// query Identify measured pIC50 associated with Cn1cncc1[C@@]1(N)c2ccc(Cl)c(c2)OCCc2cccc(c2)-c2cc(=O)n(C)c3ccc1cc23 [(S)-27]
// result ≥ 8.00

// query Identify measured pIC50 associated with Cn1cnnc1[C@@]1(N)c2ccc(Cl)c(c2)COc2cccc(c2)-c2cc(=O)n(C)c3ccc1cc23 [(S)-51]
// result ≥ 8.00

// query Identify measured pIC50 associated with Cn1cncc1C1(O)c2cccc(c2)OCc2cccc(c2)-c2cc(=O)n(C)c3ccc1cc23 (stereo not shown)
// result ≥ 8.00

// query Identify measured pIC50 associated with Cn1cncc1[C@@]1(N)c2ccc(C#N)c(c2)COc2cccc(c2)-c2cc(N3CCOCC3)nc3ccc1cc23 [(S)-66]
// result ≥ 8.00

// query Identify measured pIC50 associated with Cn1cncc1[C@]1(O)c2ccc(Cl)c(c2)OCc2cccc(c2)-c2cc(=O)n(C)c3ccc1cc23 (racemic) [(R)-14]
// result < 7.00

// query Identify measured pIC50 associated with Cn1cncc1[C@]1(N)c2ccc(Cl)c(c2)OCc2cccc(c2)-c2cc(=O)n(C)c3ccc1cc23 (racemic) [(R)-15]
// result < 7.00

// query Identify measured pIC50 associated with Cn1cncc1[C@@]1(O)c2ccc(C#N)c(c2)OCc2cccc(c2)-c2cc(=O)n(C)c3ccc1cc23 [(S)-18]
// result ≥ 8.00

// query Identify measured pIC50 associated with Cn1cnnc1[C@]1(N)c2ccc(Cl)c(c2)COc2cccc(c2)-c2cc(=O)n(C)c3ccc1cc23 (racemic) [(R)-51]
// result < 7.00

// query Identify measured pIC50 associated with Cn1cnnc1[C@]1(N)c2ccc(Cl)c(c2)OCCc2cccc(c2)-c2cc(=O)n(C3CC3)c3ccc1cc23 (racemic) [(R)-35]
// result < 7.00

// query Identify measured pIC50 associated with Cn1cncc1C1(O)c2ccc(C#N)c(c2)COc2cccc(c2)-c2cc(C(N)=O)nc3ccc1cc23 (stereo not shown)
// result 7.00 to 8.00
